Biological target: FGFR4 (Homo sapiens (Human), UniProt P22455)
Sequence (P22455 22-802): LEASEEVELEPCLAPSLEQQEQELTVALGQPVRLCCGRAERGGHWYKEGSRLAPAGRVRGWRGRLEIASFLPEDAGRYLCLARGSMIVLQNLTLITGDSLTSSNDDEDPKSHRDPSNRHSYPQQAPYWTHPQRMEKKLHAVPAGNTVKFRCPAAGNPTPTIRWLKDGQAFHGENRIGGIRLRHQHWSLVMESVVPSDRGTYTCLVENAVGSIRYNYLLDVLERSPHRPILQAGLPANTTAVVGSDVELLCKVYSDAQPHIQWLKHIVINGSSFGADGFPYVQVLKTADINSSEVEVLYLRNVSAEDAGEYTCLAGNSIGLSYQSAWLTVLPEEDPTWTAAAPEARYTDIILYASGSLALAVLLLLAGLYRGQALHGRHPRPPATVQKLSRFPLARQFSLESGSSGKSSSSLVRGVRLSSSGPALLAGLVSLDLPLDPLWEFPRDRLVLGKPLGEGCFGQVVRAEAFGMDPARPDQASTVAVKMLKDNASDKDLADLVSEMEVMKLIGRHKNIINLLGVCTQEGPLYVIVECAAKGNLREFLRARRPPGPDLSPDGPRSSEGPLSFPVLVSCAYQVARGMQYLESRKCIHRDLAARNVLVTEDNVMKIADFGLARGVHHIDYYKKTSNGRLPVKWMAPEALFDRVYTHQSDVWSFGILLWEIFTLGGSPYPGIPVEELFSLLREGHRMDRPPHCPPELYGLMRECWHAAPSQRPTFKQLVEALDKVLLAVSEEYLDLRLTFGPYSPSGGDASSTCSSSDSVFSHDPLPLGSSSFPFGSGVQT
Experiment: HTRF KinEASE-TK kinase assay, FGFR4
Type: biochemical
Conditions: read-out: % FGFR4 Remaining activity vs DMSO (1 μM, 3 h)
PROPERTY NAME: remaining activity at 1 µM

compound="O=S(=O)(Nc1cc2c(Nc3ccc(F)c(Cl)c3)ncnc2cc1O[C@H]1CCOC1)c1c(F)c(F)c(F)c(F)c1C(F)(F)F [Compound I-1]" observed_value="> 90%"
compound="Nc1ncnc2c1c(-c1ccc(Oc3ccccc3)cc1)nn2[C@@H]1CCN(S(=O)(=O)c2c(F)c(F)c(F)c(F)c2OCF)C1 [Compound I-24]" observed_value="< 50%"
compound="Nc1ncnc2c1c(-c1ccc(Oc3ccccc3)cc1)nn2[C@@H]1CCCN(C(=O)c2c(F)c(F)c(F)c(F)c2S(N)(=O)=O)C1 [Compound I-35]" observed_value="50 to 90%"
